The reported numbers originate from patent US9034896B2.

# targetOrSystem: UniProtKB P18089
# assayRemarks: RSAT (Receptor Selection and Amplification Technology) assay, alpha 2B
# reportedConditions: cells expressing alpha 2B receptor alone, receptor-mediated growth response, NA = not active, read-out: Intrinsic Activity EC50 Alpha 2B
pEC50: −log10 of the molar value.
true means recorded pEC50 is 7 or above; false means it is below 7.

c1nc2cc(N=C3NCCN3)cnc2s1 | false
c1nc2cc(N=C3NCCN3)cnc2[nH]1 | false
Clc1c(N=C2NCCN2)cnc2[nH]ccc12 | true

Alright, here's another compound for you.
Q: Please indicate if the recorded pEC50 for Brc1c(N=C2NCCN2)cnc2[nH]ccc12 meets or exceeds 7.
A: true

###

# targetOrSystem: Alpha 2B adrenergic receptor (Homo sapiens, UniProt P18089)
# Construct: expressed in transfected cells
# Sequence (P18089 whole entry): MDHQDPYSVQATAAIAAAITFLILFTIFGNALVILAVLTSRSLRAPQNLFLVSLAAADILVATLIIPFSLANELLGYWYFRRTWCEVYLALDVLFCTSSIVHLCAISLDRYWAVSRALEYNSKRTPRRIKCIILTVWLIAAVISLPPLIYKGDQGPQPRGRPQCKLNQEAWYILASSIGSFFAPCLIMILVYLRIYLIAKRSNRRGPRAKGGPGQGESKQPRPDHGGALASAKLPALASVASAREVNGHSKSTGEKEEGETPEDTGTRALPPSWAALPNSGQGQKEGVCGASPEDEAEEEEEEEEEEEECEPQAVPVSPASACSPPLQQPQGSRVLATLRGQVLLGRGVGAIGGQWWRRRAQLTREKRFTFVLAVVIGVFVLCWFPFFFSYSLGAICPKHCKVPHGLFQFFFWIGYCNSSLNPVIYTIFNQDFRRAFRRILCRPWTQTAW
# assayRemarks: RSAT (Receptor Selection and Amplification Technology) assay, alpha 2B
# Assay type: cell-based
# reportedConditions: relative efficacy compared to a standard full agonist
outcomeMeasure: Intrinsic Activity (efficacy) Alpha 2B

Brc1c(N=C2NCCN2)cnc2[nH]ccc12 | 0.17
Cn1ccc2cc(N=C3NCCN3)cnc21 | 0.57
Clc1c(N=C2NCCN2)cnc2[nH]ccc12 | 0.72
c1nc2cc(N=C3NCCN3)cnc2[nH]1 | 0.61

Q: Consider the molecule c1nc2cc(N=C3NCCN3)cnc2s1 and give its measured Intrinsic Activity (efficacy) Alpha 2B.
A: 0.46

###

# pEC50 per entry
# targetOrSystem: Alpha 2A adrenergic receptor (Homo sapiens)
# Sequence (P08913 whole entry): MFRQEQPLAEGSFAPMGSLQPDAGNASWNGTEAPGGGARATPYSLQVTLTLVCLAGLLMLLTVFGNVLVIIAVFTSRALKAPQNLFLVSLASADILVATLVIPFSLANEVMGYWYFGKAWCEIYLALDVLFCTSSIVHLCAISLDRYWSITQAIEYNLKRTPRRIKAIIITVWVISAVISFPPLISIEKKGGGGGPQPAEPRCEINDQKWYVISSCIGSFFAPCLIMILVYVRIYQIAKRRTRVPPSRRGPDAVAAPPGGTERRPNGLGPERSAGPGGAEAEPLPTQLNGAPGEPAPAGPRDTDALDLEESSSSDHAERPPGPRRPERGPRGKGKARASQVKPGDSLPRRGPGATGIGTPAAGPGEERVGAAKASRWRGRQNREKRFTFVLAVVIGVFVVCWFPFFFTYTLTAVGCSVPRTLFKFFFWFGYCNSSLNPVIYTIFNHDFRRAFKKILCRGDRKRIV
# assayRemarks: RSAT (Receptor Selection and Amplification Technology) assay, alpha 2A
# reportedConditions: cells expressing alpha 2A receptor alone, receptor-mediated growth response, NA = not active, read-out: Intrinsic Activity EC50 Alpha 2A
Quick note: pEC50 values are minus log10 of concentrations in mol/L.

Consider the reported pEC50 for these compounds:
Cc1c(N=C2NCCN2)cnc2[nH]ccc12 | 8.09
c1cc2cc(N=C3NCCN3)cnc2[nH]1 | 7.79
Brc1c(N=C2NCCN2)cnc2[nH]ccc12 | 7.21

Q: Consider the compound Clc1c(N=C2NCCN2)cnc2[nH]ccc12 and give its measured pEC50.
A: 7.60

###

# EC50 per entry
# targetOrSystem: UniProt:P18825
# Sequence (P18825 1-462): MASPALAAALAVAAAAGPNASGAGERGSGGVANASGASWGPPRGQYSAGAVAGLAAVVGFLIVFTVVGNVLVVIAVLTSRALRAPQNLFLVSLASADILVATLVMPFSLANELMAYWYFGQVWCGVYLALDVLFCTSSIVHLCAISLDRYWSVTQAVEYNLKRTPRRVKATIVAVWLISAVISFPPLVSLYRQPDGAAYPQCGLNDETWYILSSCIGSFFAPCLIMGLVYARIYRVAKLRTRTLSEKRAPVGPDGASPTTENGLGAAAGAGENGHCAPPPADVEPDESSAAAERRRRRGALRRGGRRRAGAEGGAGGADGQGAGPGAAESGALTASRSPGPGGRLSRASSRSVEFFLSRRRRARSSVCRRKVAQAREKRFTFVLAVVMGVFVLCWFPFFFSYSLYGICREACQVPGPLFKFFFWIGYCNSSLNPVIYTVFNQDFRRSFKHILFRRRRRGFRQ
# assayRemarks: RSAT (Receptor Selection and Amplification Technology) assay, alpha 2C
# reportedConditions: cells expressing alpha 2C receptor alone, receptor-mediated growth response, NA = not active, read-out: Intrinsic Activity EC50 Alpha 2C
# Experimental: Cells expressing each of the alpha 2 adrenergic receptors alone were incubated with the various compounds and a receptor-mediated growth response was measured. The compound's activity is expressed as its relative efficacy compared to a standard full agonist (see Table 3).
Response body: numeric value in nM, unit text excluded.

Q: Consider the compound c1cc2cc(N=C3NCCN3)cnc2o1 and give its measured EC50.
A: 2110

Q: # iterate: c1nc2cc(N=C3NCCN3)cnc2s1
A: 10

Q: # iterate: Brc1c(N=C2NCCN2)cnc2[nH]ccc12
A: 31.2

Q: # iterate: c1cc2cc(N=C3NCCN3)cnc2[nH]1
A: 7.3

Q: # iterate: Clc1c(N=C2NCCN2)cnc2[nH]ccc12
A: 10.5

Q: # iterate: Cn1ccc2cc(N=C3NCCN3)cnc21
A: 31

Q: # iterate: c1nc2cc(N=C3NCCN3)cnc2[nH]1
A: 448
